The measurements presented in this section are drawn from patent US20110039873A1.

# Test system: phosphorylated c-Jun (serine-73)
# Assay method text: Phosphorylated c-JUN (6-OHDA), SH-SY5Y
# Type: cell-based
# Measurement context: Homo sapiens, 50 uM 6-hydroxydopamine, 1.5 hours, read-out: p-cJun 6-OHDA SH-SY5Y (EC50 in μM)
Parameter: EC50 (µM)

In [3]: df
Out[3]:
                                   molecule                  target_or_system  parameter  assay_value
0        c1ccn2ncc(-c3ccnc(NC4CCCC4)n3)c2c1  phosphorylated c-Jun (serine-73)       EC50          1.1
1     CC(C)Nc1nccc(-c2c(C(C)C)nn3ccccc23)n1  phosphorylated c-Jun (serine-73)       EC50          6.1
2  Oc1c2ccccc2c2c3c(cccc13)N=N2 [SP600125, reference compound]  phosphorylated c-Jun (serine-73)       EC50          0.6
3     CC(C)c1nn2ccccc2c1-c1ccnc(NC2CCCC2)n1  phosphorylated c-Jun (serine-73)       EC50          3.4

[P] Cc1cccc2c(-c3ccnc(NC4CCCC4)n3)cnn12
[Q] CC(C)Nc1nccc(-c2cnn3ccccc23)n1
[R] CCCNc1nccc(-c2cnn3ccccc23)n1
stdin: Arrange these molecules by their EC50, starting with the largest number. Record the ranking as a list of labels in the requested order.
stdout: Q, R, P
